The measured values listed here are drawn from patent US20040014066A1.

tested on: sigE promoter; assay: sigE promoter bioassay: sigEp-neo fusion (pIJ6880) in M600, paper discs on MMT medium with lethal kanamycin, halo of kanamycin-resistant growth; assay type: cell-based, Streptomyces coelicolor A3(2); conditions: M600 carrying pIJ6880, MMT medium, kanamycin 100 μg ml^−1, paper disc
readout type: induction of the sigE promoter (halo of kanamycin-resistant growth), in words

# induction of the sigE promoter (halo of kanamycin-resistant growth), in words lookup, item C=C(NC(=O)C(=C)NC(=O)c1csc(C2=N[C@@H]3c4csc(n4)[C@H]4NC(=O)c5csc(n5)[C@H]([C@](C)(O)[C@@H](C)O)NC(=O)[C@H]5CSC(=N5)/C(=C/C)NC(=O)[C@H]([C@@H](C)O)NC(=O)c5csc(n5)[C@]3(CC2)NC(=O)[C@H](C)NC(=O)C(=C)NC(=O)[C@H](C)NC(=O)[C@H]([C@@H](C)CC)N[C@@H]2C=Cc3c([C@H](C)O)cc(nc3[C@H]2O)C(=O)O[C@@H]4C)n1)C(N)=O
do not induce a halo

# induction of the sigE promoter (halo of kanamycin-resistant growth), in words lookup, item [H]/N=C(/N)N[C@H]1[C@H](O)[C@@H](O)[C@H](O[C@@H]2O[C@@H](C)[C@](O)(C=O)[C@H]2O[C@@H]2O[C@@H](CO)[C@H](O)[C@@H](O)[C@@H]2NC)[C@@H](N/C(N)=N\[H])[C@@H]1O
do not induce a halo

# induction of the sigE promoter (halo of kanamycin-resistant growth), in words lookup, item CO[C@@H]1[C@@H](OC(N)=O)[C@@H](O)[C@H](Oc2ccc3c(O)c(NC(=O)c4ccc(O)c(CC=C(C)C)c4)c(=O)oc3c2C)OC1(C)C
do not induce a halo
